study.target: T1, monkey Trop2 protein (Sino Biological, #90893-C08H) (monkey, UniProt A0A2K5UE71 27-274)
T1 construct: bought protein; also called monkey Trop2 protein antigen (His tag)
T1 sequence: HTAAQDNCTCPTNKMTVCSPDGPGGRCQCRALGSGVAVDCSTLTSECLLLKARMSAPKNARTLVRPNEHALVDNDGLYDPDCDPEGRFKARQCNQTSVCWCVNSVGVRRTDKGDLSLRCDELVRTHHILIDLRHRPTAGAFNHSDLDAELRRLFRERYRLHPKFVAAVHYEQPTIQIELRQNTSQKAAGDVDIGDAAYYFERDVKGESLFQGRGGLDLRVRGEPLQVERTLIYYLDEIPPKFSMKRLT
test: BLI, Octet RED96, AHC sensor
readout.kind: koff (s⁻¹)
Lab book: enter the figure in s⁻¹, no units written.

Which measured koff value corresponds to PR001151 (antibody, human IgG1, kappa, V domains shown, fully human IgG1/kappa; also called antibody No. (14)) VH: QVQLVESGGGVVQPGRSLRLSCAASGFTFSHYGMHWVRQAPGKGLEWVAVIWYDGIKKDYVESVKGRFTISRDNSKNTLYLQMNRLRAEDTAVYYCARDGGFGELNYYGLDVWGQGTTVTVSS VL: DIQLTQSPSFLSASVGDRVTITCRASQGISSYLGWYQQKPGKAPKLLIYVASTLQSGVPSRFSGSGSGTEFTLTISSLQPEDFATYYCQQLNSYPYTFGQGTKLEIKR ?
0.00018
